- Tested target: DNA repair protein RAD52 homolog (Homo sapiens)
- Sequence (P43351 whole entry): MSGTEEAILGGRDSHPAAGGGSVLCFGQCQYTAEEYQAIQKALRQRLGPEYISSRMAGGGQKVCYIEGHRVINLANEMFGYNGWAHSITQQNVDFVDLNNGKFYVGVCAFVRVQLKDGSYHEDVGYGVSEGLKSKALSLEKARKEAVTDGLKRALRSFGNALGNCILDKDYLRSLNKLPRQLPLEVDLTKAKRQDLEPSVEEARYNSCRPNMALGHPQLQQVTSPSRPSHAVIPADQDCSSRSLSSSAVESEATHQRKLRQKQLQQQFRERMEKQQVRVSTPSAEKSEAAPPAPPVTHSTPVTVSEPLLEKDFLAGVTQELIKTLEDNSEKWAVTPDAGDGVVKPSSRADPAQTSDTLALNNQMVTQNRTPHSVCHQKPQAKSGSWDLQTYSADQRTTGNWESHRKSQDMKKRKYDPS
- Type: functional, biochemical
Calls of active or inactive are those of the source.
Outcome measure: AC50

Sample records with AC50:
[[record]]
smiles_code = "CCN(CC)CCN(C(=O)c1ccc(N2C(=O)CCC2=O)cc1)c1nc2cc3c(cc2s1)OCCO3"
outcome_measure = "AC50"
measurement = "21.9 µM (active)"

[[record]]
smiles_code = "COc1cc2c3cc1Oc1c(OC)c(OC)cc4c1[C@H](Cc1ccc(cc1)Oc1cc(ccc1O)C[C@H]3N(C)CC2)N(C)CC4"
outcome_measure = "AC50"
measurement = "9.29 µM (active)"

[[record]]
smiles_code = "CCN(CC)CCN(C(=O)c1ccc2c(c1)CCCC2)c1nc2c(OC)cccc2s1"
outcome_measure = "AC50"
measurement = "24.3 µM (active)"

[[record]]
smiles_code = "CCn1c(C)nc2cc(N)ccc21"
outcome_measure = "AC50"
measurement = "5.49 µM (active)"


Batch lookup, AC50 per entry.
1. Cc1c(C)n(CCN(C)C)c2ccc(C(=O)OCCN(C)C)cc12
2. N=C(N)Nc1cc2ccccc2c2ccccc12

1.31 µM (active)
7.61 µM (active)

====

- Experiment summary: Luminescence Cell-Based Dose Response HTS to Identify Inhibitors of 5'UTR Stem-Loop Driven Prion Protein mRNA Translation in H4 Neuroglioblastoma Cells. [Related pubchem assays: 1827 (Project Summary), 1813 (Primary HTS)]
- Format: functional
The source made the active and inactive calls.
Exercise: for every item that follows, state its recorded EC50.

Look over these answered cases.
[[record]]
compound = "CC(=O)Nc1ccc(C#Cc2ccc(NC(C)=O)cc2)cc1"
measurement = "10.5 µM (active)"

[[record]]
compound = "Cc1cc(SC(C)C(=O)NCC(=O)Nc2ccc(F)c(F)c2F)nc2ccccc12 (centres undefined)"
measurement = "92 µM (active)"

[[record]]
compound = "CSc1nc(NCc2ccco2)c2sc3nc(C(C)C)c4c(c3c2n1)CC(C)(C)OC4"
measurement = "> 120 µM (not active)"


According to the records, this compound COc1cccc(OC)c1C1=NCC(=O)Nc2c1oc1ccc(Br)cc21 displays EC50 of 0.566 µM (active)

====

- Tested target: Voltage-gated N-type calcium channel alpha-1B subunit/Amyloid beta A4 precursor protein-binding family A member 1 (Homo sapiens, UniProt Q00975+Q02410)
- Sequence (Q00975 whole entry): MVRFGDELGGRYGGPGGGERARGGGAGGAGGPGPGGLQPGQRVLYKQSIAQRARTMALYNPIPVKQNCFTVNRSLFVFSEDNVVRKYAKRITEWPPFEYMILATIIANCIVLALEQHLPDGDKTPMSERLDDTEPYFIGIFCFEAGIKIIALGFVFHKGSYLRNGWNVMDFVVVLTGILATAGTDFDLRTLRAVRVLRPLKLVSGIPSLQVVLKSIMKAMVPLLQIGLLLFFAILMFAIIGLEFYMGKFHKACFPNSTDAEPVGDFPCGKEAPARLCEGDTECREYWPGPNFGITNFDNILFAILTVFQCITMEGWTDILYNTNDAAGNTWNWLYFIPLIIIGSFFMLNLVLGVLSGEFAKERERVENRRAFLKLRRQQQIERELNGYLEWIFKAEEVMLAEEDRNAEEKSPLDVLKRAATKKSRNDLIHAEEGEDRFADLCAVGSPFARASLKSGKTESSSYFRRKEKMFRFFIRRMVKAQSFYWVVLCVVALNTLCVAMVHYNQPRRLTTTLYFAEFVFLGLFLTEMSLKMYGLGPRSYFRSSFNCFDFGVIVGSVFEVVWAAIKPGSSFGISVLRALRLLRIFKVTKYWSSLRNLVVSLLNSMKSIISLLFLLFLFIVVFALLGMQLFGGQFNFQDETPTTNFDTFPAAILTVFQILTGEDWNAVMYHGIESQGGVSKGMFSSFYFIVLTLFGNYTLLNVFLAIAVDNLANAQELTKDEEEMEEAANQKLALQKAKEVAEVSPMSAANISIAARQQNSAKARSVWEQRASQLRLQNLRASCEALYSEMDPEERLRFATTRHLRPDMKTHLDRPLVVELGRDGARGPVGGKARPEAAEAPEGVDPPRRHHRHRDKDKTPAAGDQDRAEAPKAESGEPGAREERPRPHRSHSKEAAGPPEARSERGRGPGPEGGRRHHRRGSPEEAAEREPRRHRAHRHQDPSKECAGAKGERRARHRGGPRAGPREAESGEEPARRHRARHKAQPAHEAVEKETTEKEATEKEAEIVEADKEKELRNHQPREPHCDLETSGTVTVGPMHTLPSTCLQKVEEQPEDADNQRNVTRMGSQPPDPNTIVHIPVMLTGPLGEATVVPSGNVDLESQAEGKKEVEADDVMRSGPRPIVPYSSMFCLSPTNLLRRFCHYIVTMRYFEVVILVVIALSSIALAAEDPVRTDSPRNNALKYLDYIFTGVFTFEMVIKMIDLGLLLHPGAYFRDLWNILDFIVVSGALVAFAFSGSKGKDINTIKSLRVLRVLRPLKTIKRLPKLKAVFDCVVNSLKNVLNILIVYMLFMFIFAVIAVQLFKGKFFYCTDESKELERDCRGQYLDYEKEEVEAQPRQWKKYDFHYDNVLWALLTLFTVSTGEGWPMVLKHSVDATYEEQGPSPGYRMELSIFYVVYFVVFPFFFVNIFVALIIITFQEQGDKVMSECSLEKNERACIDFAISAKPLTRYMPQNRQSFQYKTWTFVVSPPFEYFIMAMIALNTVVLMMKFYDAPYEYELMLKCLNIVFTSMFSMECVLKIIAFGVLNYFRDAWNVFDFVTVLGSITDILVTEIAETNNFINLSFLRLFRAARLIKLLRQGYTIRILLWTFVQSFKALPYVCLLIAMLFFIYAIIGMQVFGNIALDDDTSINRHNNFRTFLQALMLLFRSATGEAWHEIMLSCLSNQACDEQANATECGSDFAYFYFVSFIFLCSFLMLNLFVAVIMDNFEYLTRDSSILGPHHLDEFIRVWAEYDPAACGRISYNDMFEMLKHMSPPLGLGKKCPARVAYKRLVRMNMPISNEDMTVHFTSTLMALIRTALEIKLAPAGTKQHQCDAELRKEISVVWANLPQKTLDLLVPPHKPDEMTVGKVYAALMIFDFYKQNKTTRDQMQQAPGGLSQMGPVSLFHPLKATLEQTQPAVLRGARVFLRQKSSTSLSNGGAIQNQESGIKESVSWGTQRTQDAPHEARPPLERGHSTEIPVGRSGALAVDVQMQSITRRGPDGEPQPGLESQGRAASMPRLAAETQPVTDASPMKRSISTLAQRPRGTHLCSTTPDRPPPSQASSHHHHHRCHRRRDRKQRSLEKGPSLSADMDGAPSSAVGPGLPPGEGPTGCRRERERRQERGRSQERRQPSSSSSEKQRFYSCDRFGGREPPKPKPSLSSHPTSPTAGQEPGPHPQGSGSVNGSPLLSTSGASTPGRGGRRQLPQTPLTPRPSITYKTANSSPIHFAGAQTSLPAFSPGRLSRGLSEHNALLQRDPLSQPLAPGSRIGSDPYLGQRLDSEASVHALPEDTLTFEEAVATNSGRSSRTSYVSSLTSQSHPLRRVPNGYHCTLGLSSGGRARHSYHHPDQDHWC
- Sequence (Q02410 whole entry): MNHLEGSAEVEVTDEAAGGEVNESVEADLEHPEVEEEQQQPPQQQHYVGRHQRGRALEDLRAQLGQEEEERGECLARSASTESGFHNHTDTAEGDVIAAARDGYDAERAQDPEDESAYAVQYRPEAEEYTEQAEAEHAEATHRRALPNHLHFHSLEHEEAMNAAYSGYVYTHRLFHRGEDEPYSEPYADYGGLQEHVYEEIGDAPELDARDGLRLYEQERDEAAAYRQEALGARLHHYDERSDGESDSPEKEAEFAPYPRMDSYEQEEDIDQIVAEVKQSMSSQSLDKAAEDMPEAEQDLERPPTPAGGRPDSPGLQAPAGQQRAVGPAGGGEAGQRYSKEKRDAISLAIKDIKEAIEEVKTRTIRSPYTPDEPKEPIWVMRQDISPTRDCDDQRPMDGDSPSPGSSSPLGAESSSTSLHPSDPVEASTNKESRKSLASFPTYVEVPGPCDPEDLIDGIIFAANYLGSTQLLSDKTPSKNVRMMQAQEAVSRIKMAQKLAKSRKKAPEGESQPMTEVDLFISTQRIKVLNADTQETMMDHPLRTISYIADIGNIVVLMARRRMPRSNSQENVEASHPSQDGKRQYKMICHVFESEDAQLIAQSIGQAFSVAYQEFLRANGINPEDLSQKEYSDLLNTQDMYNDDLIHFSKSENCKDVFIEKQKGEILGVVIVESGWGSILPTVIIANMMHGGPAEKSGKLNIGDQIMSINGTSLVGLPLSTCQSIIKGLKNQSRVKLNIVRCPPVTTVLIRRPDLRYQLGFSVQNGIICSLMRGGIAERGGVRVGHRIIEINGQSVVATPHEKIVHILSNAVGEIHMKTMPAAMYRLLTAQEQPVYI
- Assay type: protein assay
Activity calls are given as the source filed them.
Please respond with reported IC50 for every item in the list.

[[record]]
compound = "O=C(O)c1cccc(-n2cccc2/C=C2/NC(=O)N(c3ccc(Cl)cc3)C2=O)c1"
measurement = "9.85 µM (active)"


Answer for every listed entry: what is its IC50? The entries follow.
1. COc1ccccc1NS(=O)(=O)c1cc(NC(=O)c2ccncc2)ccc1N1CCCC1
2. CC(/C=C/c1ccco1)=N\NC(=O)c1cccnc1
3. N#CC1=C2SCN(c3ccc(F)cc3)CN2C(=O)CC1c1cccc(F)c1 (centres undefined)

1: 29 µM (active); 2: 9.19 µM (active); 3: 1.59 µM (active)

====

Exercise: state measured IC50 for each of the molecules provided.
- Tested target: Probable nicotinate-nucleotide adenylyltransferase (Staphylococcus aureus (strain N315), UniProt P65502);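 also: confirmatory dose-response retesting of NadD inhibitor hits first found in an ultra-high-throughput screen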
- Sequence (P65502 whole entry): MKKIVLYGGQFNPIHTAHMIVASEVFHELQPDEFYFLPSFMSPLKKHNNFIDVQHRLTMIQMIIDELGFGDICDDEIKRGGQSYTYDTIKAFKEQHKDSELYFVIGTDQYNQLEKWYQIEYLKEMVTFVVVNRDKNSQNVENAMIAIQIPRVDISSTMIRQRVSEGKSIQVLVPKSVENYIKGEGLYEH
- Assay type: functional, Staphylococcus aureus subsp. aureus N315
- Assay context: read-out: IC50_Mean
Activity calls are given as the source filed them.

// known answers, use as guide
[[record]]
molecule = "O=C(COC(=O)c1ccc(Oc2ccccc2)cc1)Nc1nnc(-c2ccccc2)o1"
measurement = "23.8 µM (active)"

[[record]]
molecule = "Cc1cc(N2C(=O)C(O)=C(C(=O)c3ccc(C)o3)C2c2ccc(OCc3ccccc3)cc2)no1 (configuration not stated)"
measurement = "28.9 µM (active)"

[[record]]
molecule = "O=C1OC(c2ccc3ccccc3c2O)(c2ccc3ccccc3c2O)c2ccccc21"
measurement = "20.9 µM (active)"


I need IC50 for every entry listed below, if you could help.
1. COc1ccc2ccccc2c1/C=N/NC(=O)c1nnn(-c2nonc2N)c1C(C)C
2. O=C(O)c1cccc(-n2cccc2/C=C2/NC(=O)N(c3ccc(Cl)cc3)C2=O)c1
3. CCc1cccc2c(/C=N/NC(=O)c3cccc(S(=O)(=O)Nc4ccccc4Cl)c3)c[nH]c12

1: 78 µM (active); 2: 27.1 µM (active); 3: 31.2 µM (active)

Cc1ccc(C)c(NC(=O)C(OC(=O)c2ccc(NC(=O)CC#N)cc2)c2ccccc2)c1 (configuration not stated) yielded IC50 of 42.7 µM (active)

====

Record form. Attribute: AC50. Fill in for each entry.
- Tested target: UniProt P08684
- Sequence (P08684 whole entry): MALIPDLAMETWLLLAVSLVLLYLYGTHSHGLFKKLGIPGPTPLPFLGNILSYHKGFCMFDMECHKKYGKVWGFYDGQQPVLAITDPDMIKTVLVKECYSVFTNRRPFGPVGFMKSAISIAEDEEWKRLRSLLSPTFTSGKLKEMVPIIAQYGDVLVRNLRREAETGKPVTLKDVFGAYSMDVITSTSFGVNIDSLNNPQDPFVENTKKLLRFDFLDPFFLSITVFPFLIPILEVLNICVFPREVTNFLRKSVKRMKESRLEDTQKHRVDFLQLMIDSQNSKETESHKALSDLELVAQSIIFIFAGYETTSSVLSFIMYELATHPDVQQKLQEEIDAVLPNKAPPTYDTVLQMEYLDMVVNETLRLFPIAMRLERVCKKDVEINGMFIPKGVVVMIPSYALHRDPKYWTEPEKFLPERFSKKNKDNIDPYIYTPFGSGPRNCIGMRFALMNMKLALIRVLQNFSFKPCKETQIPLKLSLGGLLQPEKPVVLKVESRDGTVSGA

Example molecules with recorded AC50:
[[record]]
molecule = "O=c1c(-c2cccs2)nc2cnc(N3CCOCC3)nc2n1Cc1cccs1"
measurement = "10 µM (inconclusive)"

[[record]]
molecule = "CCCC(=O)Nc1nnc(Cc2ccccc2)s1"
measurement = "15.8 µM (inconclusive)"

[[record]]
molecule = "N#CC(C#N)=NNc1ccc2cn[nH]c2c1"
measurement = "1.58 µM (inconclusive)"

[[record]]
molecule = "Cc1cnn(-c2ccc3nnc(-c4ccc(Cl)cc4)n3n2)c1"
measurement = "1.12 µM (inconclusive)"


Fill in AC50 for each of the 4 molecules listed.
1. Cc1c(N2C(=O)CS/C2=N\N=C\c2ccc(Cl)cc2)c(=O)n(-c2ccccc2)n1C
2. O=C(Nc1ccc(F)cc1Cl)c1ccc2c(=O)n3c(nc2c1)CCCCC3
3. COc1ccc2cc3cc(C(=O)NCc4ccccn4)oc3nc2c1
4. CN(C)S(=O)(=O)c1ccc(Nc2ccc(O)c3c2C(=O)c2c([N+](=O)[O-])ccc(O)c2C3=O)cc1

1. 28.2 µM (inconclusive)
2. 4.47 µM (inconclusive)
3. 39.8 µM (inconclusive)
4. 3.98 µM (inconclusive)

// each molecule listed below needs its AC50
1. CCCC1S/C(=N/N=C/c2ccc(OC)cc2)N(Cc2ccc(OC)cc2)C1=O (centres undefined)
2. Cc1nnc(-c2cccc(Br)c2)c2cn(-c3ccccc3Cl)nc12

1 µM (inconclusive)
39.8 µM (inconclusive)

Each molecule below has a recorded value; state its AC50.
1. COCCn1c(=O)cnc2cnc(Oc3ccccc3)nc21
2. COCC(=O)N1CCC2(CCCN(C(=O)Nc3ccc(OC)cc3)C2)CC1
3. CCOC(=O)c1cnn(-c2ccccc2)c1-n1cccc1C(=O)C(=O)Nc1ccccc1C(F)(F)F
4. Cn1c(=O)c2c(-c3cccc(F)c3)c3c(nc2n(C)c1=O)-c1ccccc1C3O (centres undefined)
5. CC1CCN(c2ccc(NC(=S)NC(=O)c3ccco3)cc2)CC1
6. O=C(c1cccc(F)c1)N1CCC2(CCN(Cc3ccncc3)CC2)CC1
7. Cc1cnc(CNc2ncncc2-c2ccccc2C(F)(F)F)cn1

25.1 µM (inconclusive)
39.8 µM (inconclusive)
4.47 µM (inconclusive)
22.4 µM (inconclusive)
17.8 µM (inconclusive)
15.8 µM (inconclusive)
0.2 µM (inconclusive)

Batch request: AC50 per item, same order as input.
1. Cc1ccc(C(=O)NC(=S)Nc2ccc(S(=O)(=O)N3CCN(C)CC3)cc2)cc1
2. O=C(N/N=C/c1ccc(OCc2ccccc2)cc1)c1cccs1

0.891 µM (inconclusive)
39.8 µM (inconclusive)

====

- Tested target: Ubiquitin-conjugating enzyme E2 N (Homo sapiens, UniProt P61088);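 also: Dose-response confirmation in a TR-FRET assay detecting UBC13-driven polyubiquitin chain formation, inhibition measured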
- Sequence (P61088 whole entry): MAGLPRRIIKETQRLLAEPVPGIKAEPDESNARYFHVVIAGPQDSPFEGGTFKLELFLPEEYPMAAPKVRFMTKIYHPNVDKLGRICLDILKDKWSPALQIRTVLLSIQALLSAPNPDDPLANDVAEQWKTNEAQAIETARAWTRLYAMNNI
- Format: functional
The source made the active and inactive calls.
Respond using exactly one of the listed classes: true = active, false = inactive

Solved cases (5 shown):
[[record]]
compound = "COc1cc(C(=O)Nc2cccc(S(=O)(=O)N3CCCC3)c2)cc(OC)c1C"
class_label = "false"

[[record]]
compound = "CC1(C)CC2=NC3=C(C(=O)c4ccccc43)C(c3ccc(Cl)cc3)C2=C(O)C1 (centres undefined)"
class_label = "false"

[[record]]
compound = "Cc1ccc2nc(N(CCCN(C)C)C(=O)c3ccc4c(c3)CCCC4)sc2c1"
class_label = "false"

[[record]]
compound = "COc1cc(C(CCN2CCCC2)c2c(OC)cc(OC)c3c(-c4ccccc4)cc(=O)oc23)cc(OC)c1OC (centres undefined)"
class_label = "false"

[[record]]
compound = "CCOC(=O)c1nn(-c2ccccc2)c(=O)cc1OCC(=O)Nc1ccccc1OCC"
class_label = "true"


Dear all, I need the recorded test outcome for COc1ccc(-c2sc3ccccc3c2C#Cc2cncn2C)cc1 , thank you.
false

Give the logged outcome of this assay for the following compound: CCCC(C(=O)NC(C)(C)C)N(Cc1ccccc1Cl)C(=O)c1snc(C(N)=O)c1N (centres undefined)
false

Record request — test call for COc1ccccc1NS(=O)(=O)c1cccc(C(=O)N/N=C/c2c(CO)cnc(C)c2O)c1
false

Would you mind telling me which call this test gave COc1cc2c3nnc(-c4ccc(F)cc4)c-3cn(Cc3ccccc3)c2cc1OC ?
false

====

- Experiment summary: alpha-synuclein stem-loop luciferase translation blockers – H4 neuroglioma cells, luminescence, confirmation (AID 1988)
- Type: functional, cell-based
The source made the active and inactive calls.
Outcome measure: EC50

Provide each entry's EC50 from the list below.
1. Cc1cc(SC(C)C(=O)NCC(=O)Nc2ccc(F)c(F)c2F)nc2ccccc12 (configuration not stated)
2. COc1cccc(OC)c1C1=NCC(=O)Nc2c1oc1ccc(Br)cc21
3. O=C(N/N=C/c1cccs1)c1[nH]nc2c1CCCC2
4. CC(Oc1ccc(Cl)cc1)c1ccnn1S(=O)(=O)c1ccccc1 (configuration not stated)

1: 18 µM (active); 2: 0.267 µM (active); 3: 8.52 µM (active); 4: > 120 µM (not active)

Quick batch: EC50 for everything below.
1. O=c1c2ccc([N+](=O)[O-])c3cccc(c32)c2nc3ccccc3n12
2. CCc1ccc(/C=C2\SC(=S)N(CCCC(=O)Nc3ccc(C(=O)O)cc3)C2=O)cc1
3. Cc1ccc(-c2nc(NC(=O)c3nn(C)cc3[N+](=O)[O-])sc2C)cc1

1: < 0.1 µM (active); 2: 3.67 µM (active); 3: 1.84 µM (active)
